Test: log P by HPLC on reversed-phase columns (EEC Directive 79/831 Annex V.A8)
Format: physicochemical
Details: pH 2.7, log P
Reported chromatographic logP values for the following compounds.
In your answer, state the number alone without any accompanying words.

I'd like to know its chromatographic logP. The compound in question is Cc1cc(Cl)cc(C(=O)NC2COC2)c1NC(=O)c1cc(Cn2nnc(C(F)(F)C(F)(F)F)n2)nn1-c1ncccc1Cl [Example 9]
3.21

I would be grateful if you could share the reported chromatographic logP for Cc1c(F)ccc(C(=O)NCc2cccc(Cl)c2)c1NC(=O)c1cc(Cn2nnc(C(F)(F)F)n2)nn1-c1ncccc1Cl [Example 183] .
3.82

Please look up its chromatographic logP: Cc1cc(C#N)cc(C(=O)NC2=NCCS2)c1NC(=O)c1cc(Cn2nnc(C(F)(F)F)n2)nn1-c1ncccc1Cl [Example 46]
3.11

Which chromatographic logP is listed for Cc1cc(C#N)cc(C(=O)NC2COC2)c1NC(=O)c1cc(Cn2nnc(C(F)F)n2)nn1-c1ncccc1Cl [Example 17] ?
2.05

Name the recorded chromatographic logP for Cc1cc(Cl)cc(C(=O)NC2COC2)c1NC(=O)c1cc(Cn2nc(C(F)(F)F)nc2C(F)(F)F)nn1-c1ncccc1Cl [Example 8] .
3.24

Others:
For the compound shown here, Cc1cc(Cl)cc(C(=O)NC2=NCCS2)c1NC(=O)c1cc(Cn2nnc(C(F)(F)C(F)(F)F)n2)nn1-c1ncccc1Cl [Example 47] , give the reported chromatographic logP.
3.9

Returns the measured chromatographic logP for the input compound. Input: COc1ccc(CNC(=O)c2cc(Cl)cc(C)c2NC(=O)c2cc(Cn3nnc(C(F)(F)F)n3)nn2-c2ncccc2Cl)cc1 [Example 102]
3.76
